# Test Details: superoxide lowering in aged yeast cells, pilot screen, validation compound set (AID 2706);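 note: yeast exposed to compound for one week at 30 degrees C before staining; 100% = mean of all compound wells on the same plate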
# Measurement Parameters: S. cerevisiae aging, superoxide DHE fluorescence; at 10 µM; stronger effect = lower value
Recorded Endpoint: superoxide response (% of plate) (%)
Could you give me the number in %? Just the number is fine.

Example entries and their recorded answers appear below.
[
  {
    "Molecule": "O=c1[nH]c2ccccc2n1C1CCN(CCCC(c2ccc(F)cc2)c2ccc(F)cc2)CC1",
    "Measured Result": 88.4
  },
  {
    "Molecule": "CN1CCN(C(=O)OC2c3nccnc3C(=O)N2c2ccc(Cl)cn2)CC1 (stereo unspecified)",
    "Measured Result": 111
  },
  {
    "Molecule": "CC[N+]1(C)CCCC(OC(=O)C(O)(c2ccccc2)c2ccccc2)C1 (stereo unspecified)",
    "Measured Result": 96.5
  },
  {
    "Molecule": "CN1C2CCC1CC(OC(=O)CCN1CCCC1)C2 (stereo unspecified)",
    "Measured Result": 98.4
  },
  {
    "Molecule": "COc1ccc(Cc2nccc3cc(OC)c(OC)cc23)cc1OC",
    "Measured Result": 96
  }
]

Q) // lookup superoxide response (% of plate) for "Cc1cccc(C)c1NC1=NCCCS1"
A) 97.2
